# Test system: Staphylococcus epidermidis
# assay: Antibacterial activity against Staphylococcus epidermidis ATCC 12228 incubated for 18 hrs by CLSI based broth dilution method
# Format: functional
Where a SMILES comes first, the peptide text is derived from it.
I'd be grateful if you could share measured MIC for these entries.

### Prompt Entry C[C@H](NC(=O)[C@H](C)NC(=O)[C@@H](NC(=O)[C@H](CCCCN)NC(=O)[C@H](C)NC(=O)[C@H](CCCNC(=N)N)NC(=O)[C@H](CCCCN)NC(=O)[C@H](C)NC(=O)[C@H](C)NC(=O)CN)[C@@H](C)O)C(N)=O (H-GAAKRAKTAA-NH2) has what MIC?
### Response ≥ 512 µM

### Prompt Also CC(C)C[C@H](NC(=O)[C@H](C)NC(=O)[C@@H](NC(=O)[C@H](CCCCN)NC(=O)[C@H](C)NC(=O)[C@H](CCCNC(=N)N)NC(=O)[C@H](CCCCN)NC(=O)[C@H](C)NC(=O)[C@H](C)NC(=O)CN)[C@@H](C)O)C(N)=O (H-GAAKRAKTAL-NH2) ?
### Response ≥ 512 µM

### Prompt CC(C)C[C@H](NC(=O)[C@H](CC(C)C)NC(=O)[C@@H](NC(=O)[C@H](CCCCN)NC(=O)[C@H](C)NC(=O)[C@H](CCCNC(=N)N)NC(=O)[C@H](CCCCN)NC(=O)[C@H](C)NC(=O)[C@H](CC(C)C)NC(=O)CN)[C@@H](C)O)C(N)=O (H-GLAKRAKTLL-NH2) , same question.
### Response ≥ 512 µM

### Prompt Same question for C[C@@H](O)[C@H]1C(=O)N2C(C(=O)O)=C(S[C@@H]3CN[C@H](C(=O)N(C)C)C3)[C@H](C)[C@H]12 please.
### Response < 1 µM
